# test.target: T1, Cdc25, P04821
# T1 sequence (P04821 50-136, looked up): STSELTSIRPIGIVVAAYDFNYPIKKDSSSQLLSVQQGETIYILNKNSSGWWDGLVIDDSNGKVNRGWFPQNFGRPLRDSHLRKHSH
# experiment.description: SPOT array
# run.conditions: median of control spots 969
measured.parameter: SPOT intensity
One number for each entry.

Below are some binders; for each one, tell me its SPOT intensity.
1. MPAPPPPPPPPPGAF
2. FVLRYYILIPHEQWD

0
59

Below are some binders; for each one, tell me its SPOT intensity.
1. GLRRARYKFPGQQKI
2. PIVPSSPAPPLPLSG
3. QHQQRQPKRPKRYSL
4. GQYRRTIVIPRRFFT
5. GRSRLFPHSPLGRSS
6. YHSRRHPLALGFKYV
7. RKNRAPPQRPRFNRD

[15, 0, 22, 156, 34, 6, 40]

Below are some binders; for each one, tell me its SPOT intensity.
1. QPWTDQFEKLEKEVS
2. RPVPRRPSQPLNTLS

4
37
